Provenance of the data: ChEMBL document CHEMBL5113392

- assay_method_text: Cytotoxicity against human HaCaT cells assessed as cell growth inhibition incubated for 72 hrs by MTT assay
- Assay type: toxicity, cell-based
GI50 at 72 h reference

// solved cases for GI50 at 72 h follow
INSERT INTO measurements (molecule, property, result) VALUES
  ('O=C1CC(N2C(=O)/C(=C/C(Cl)=C/c3ccc([N+](=O)[O-])cc3)SC2=S)C(=O)N1c1ccc(Cl)cc1 (centres undefined)', 'GI50 at 72 h', '> 100 µM'),
  ('O=C1CC(N2C(=O)/C(=C/C(Cl)=C/c3ccc([N+](=O)[O-])cc3)SC2=S)C(=O)N1c1ccc(O)cc1 (centres undefined)', 'GI50 at 72 h', '73.6 µM'),
  ('O=C1CC(N2C(=O)CSC2=S)C(=O)N1c1ccc(Cl)cc1 (centres undefined)', 'GI50 at 72 h', '97.7 µM');

The record that follows has no GI50 at 72 h shown yet.
**Query** Output measured GI50 at 72 h for this item: COc1cccc2c1C(=O)c1c(O)c3c(c(O)c1C2=O)C[C@@](O)(C(=O)CO)C[C@@H]3O[C@H]1C[C@H](N)[C@H](O)[C@H](C)O1 [DOXORUBICIN]
**Result** 0.64 µM

---

GI50 reference
- Test system: A549
- assay_method_text: Anticancer activity against human A549 cells assessed as cell growth inhibition incubated for 72 hrs by MTT assay
- Assay type: functional

// solved cases for GI50 follow
INSERT INTO assay_data (molecule, property, result) VALUES
  ('C=CCOc1cccc(/C=C2\SC(=S)N(C3CC(=O)N(c4ccc(Cl)cc4)C3=O)C2=O)c1 (stereo not drawn)', 'GI50', '> 100 µM'),
  ('O=C1CC(N2C(=O)/C(=C/C(Cl)=C/c3ccc([N+](=O)[O-])cc3)SC2=S)C(=O)N1c1ccc(Cl)cc1 (stereo not drawn)', 'GI50', '63.9 µM');

The record that follows has no GI50 shown yet.
**Query** Output measured GI50 for this item: COc1cccc2c1C(=O)c1c(O)c3c(c(O)c1C2=O)C[C@@](O)(C(=O)CO)C[C@@H]3O[C@H]1C[C@H](N)[C@H](O)[C@H](C)O1 [DOXORUBICIN]
**Result** 0.97 µM

---

- assay_method_text: Selectivity index, ratio of GI50 for human HaCaT cells to GI50 for human MDA-MB-231 cells
- Type: toxicity
- study_conditions: HaCaT cells versus MDA-MB-231 cells, read-out: RatioGI50
selectivity ratio reference
Quick one: just the number, no unit, thanks!

// solved cases for selectivity ratio follow
INSERT INTO measurements (molecule, number) VALUES
  ('O=C1CC(N2C(=O)/C(=C/C(Cl)=C/c3ccc([N+](=O)[O-])cc3)SC2=S)C(=O)N1c1ccc(O)cc1 (centres undefined)', 11.9),
  ('O=C1CC(N2C(=O)CSC2=S)C(=O)N1c1ccc(Cl)cc1 (centres undefined)', 0.98),
  ('O=C1Nc2ccc(Cl)cc2/C1=C1/SC(=S)N(C2CC(=O)N(c3ccc(Cl)cc3)C2=O)C1=O (centres undefined)', 1);

The record that follows has no selectivity ratio shown yet.
**Query** Output measured selectivity ratio for this item: O=C1Nc2ccccc2/C1=C1/SC(=S)N(C2CC(=O)N(c3ccc(Br)cc3)C2=O)C1=O (centres undefined)
**Result** 1
